These measurements were taken from paper PMC8205030.

Give measured melting point for each item. Keep answers brief.

List melting point for every entry below, keeping the order given.
1. CCN(c1cc(OC)c(OC)cc1Br)S(=O)(=O)c1ccc(OC)cc1 [Compound 15]
2. COc1ccc(S(=O)(=O)Nc2cc(OC)c(OC)cc2Br)cc1 [Compound 13]
3. COc1ccc(S(=O)(=O)N(C(=O)OCc2ccccc2)c2cc(OC)cc(OC)c2)cc1 [Compound 7]
4. COc1ccc(S(=O)(=O)N(CC#N)c2cc(OC)c(OC)cc2OC)cc1 [Compound 35]
5. COc1ccc(S(=O)(=O)N(Cc2ccccc2)c2cc(OC)cc(OC)c2)cc1 [Compound 6]

Completion:
["111 to 117 °C", "162 to 167 °C", "129 to 131 °C", "173 to 180 °C", "146 to 150 °C"]
